Assay: Displacement of [125I]-CCK8 from CCK2 receptor in guinea pig cerebral cortex
Type: tissue-based, Cavia porcellus
Attribute Measured: IC50 (µM)

O=C(Nc1ccccc1C(=O)NC(Cc1ccccc1)C(=O)O)c1cc2cc(F)ccc2[nH]1 (racemic) :: 10.6
O=C(NC(Cc1ccccc1)C(=O)O)c1ccccc1NS(=O)(=O)c1ccc2ccccc2c1 (racemic) :: 7.31
O=C(Nc1ccccc1C(=O)NC(Cc1ccccc1)C(=O)O)c1cc2ccccc2o1 (racemic) :: 13.7
Cn1c(C(=O)Nc2ccccc2C(=O)NC(Cc2ccccc2)C(=O)O)cc2ccccc21 (racemic) :: 10
Cc1cccc2cc(C(=O)Nc3ccccc3C(=O)NC(Cc3ccccc3)C(=O)O)[nH]c12 (racemic) :: 10.2
